// provenance: the OligoGym collection

target: Mmp7 (rat); assay: reporter assay of Huesken 2005; conditions: siRNA
Oligonucleotides are given in HELM: sugar(base)linkage, 5' to 3'; d 2'-deoxyribose, r ribose, m 2'-O-methylribose, p phosphate. ss, as = sense and antisense strand
Each entry below carries its reported normalised inhibition (eCFP-eYFP dual reporter).
I only need the number, in %, no unit after it.

substance=RNA1{r(U)p.r(C)p.r(A)p.r(U)p.r(U)p.r(C)p.r(A)p.r(G)p.r(A)p.r(A)p.r(G)p.r(A)p.r(C)p.r(U)p.r(U)p.r(C)p.r(A)p.r(G)p.r(U)p.d(T)p.d(T)}|RNA2{r(A)p.r(C)p.r(U)p.r(G)p.r(A)p.r(A)p.r(G)p.r(U)p.r(C)p.r(U)p.r(U)p.r(C)p.r(U)p.r(G)p.r(A)p.r(A)p.r(U)p.r(G)p.r(A)p.d(T)p.d(C)}$$$RNA1{StrandType:ss}|RNA2{StrandType:as}$ units=% measuredvalue=54.7

Moving on to the next substance.
Name the recorded normalised inhibition (eCFP-eYFP dual reporter) of the item RNA1{r(G)p.r(G)p.r(A)p.r(A)p.r(C)p.r(A)p.r(G)p.r(G)p.r(C)p.r(G)p.r(C)p.r(A)p.r(G)p.r(A)p.r(A)p.r(U)p.r(U)p.r(A)p.r(U)p.d(T)p.d(T)}|RNA2{r(A)p.r(U)p.r(A)p.r(A)p.r(U)p.r(U)p.r(C)p.r(U)p.r(G)p.r(C)p.r(G)p.r(C)p.r(C)p.r(U)p.r(G)p.r(U)p.r(U)p.r(C)p.r(C)p.d(C)p.d(A)}$$$RNA1{StrandType:ss}|RNA2{StrandType:as}$ in your answer.
104

----------
Quick list: normalised inhibition (eCFP-eYFP dual reporter) per entry.
biological target: DENND5A; assay: reporter assay of Huesken 2005; details: siRNA
Oligonucleotides are written 5' to 3', each unit as a sugar letter and its base; * is a phosphorothioate linkage, no mark a phosphodiester; rarer units and linkages stand in square brackets, end groups in braces. Plain capitals give the bases only. d = 2'-deoxy (DNA); r = 2'-OH (RNA)
Numbers only here, please. The scale is %.

Field: example entries. Status: answers known.
substance="sense rArUrGrCrCrArArArUrGrGrCrUrGrGrUrGrGrAdTdT / antisense rUrCrCrArCrCrArGrCrCrArUrUrUrGrGrCrArUdAdC" units=% measuredvalue=69.5
substance="sense rGrArUrGrArGrArGrGrCrCrArUrGrCrCrGrGrAdTdT / antisense rUrCrCrGrGrCrArUrGrGrCrCrUrCrUrCrArUrCdCdA" units=% measuredvalue=63

With those in mind, consider the next substance.
Report the value of normalised inhibition (eCFP-eYFP dual reporter) obtained on DENND5A for sense rGrArUrGrGrUrGrArArGrArCrArCrUrCrCrUrGdTdT / antisense rCrArGrGrArGrUrGrUrCrUrUrCrArCrCrArUrCdCdT .
82.9

----------
Here, each record is paired with measured normalised inhibition (eCFP-eYFP dual reporter) data.
target: UBE2B; test: reporter assay of Huesken 2005; conditions: siRNA
Oligonucleotides are written 5' to 3', each unit as a sugar letter and its base; * is a phosphorothioate linkage, no mark a phosphodiester; rarer units and linkages stand in square brackets, end groups in braces. Plain capitals give the bases only. d = 2'-deoxy (DNA); r = 2'-OH (RNA)
Report as a plain number; the unit % is understood.

Take a look at these entries with their results.
substance="sense rGrCrUrUrUrArUrCrArGrGrArArArArCrArArAdTdT / antisense rUrUrUrGrUrUrUrUrCrCrUrGrArUrArArArGrCdTdG" measuredvalue=80.4
substance="sense rCrArGrUrGrGrArArUrGrCrArGrUrUrArUrArUdTdT / antisense rArUrArUrArArCrUrGrCrArUrUrCrCrArCrUrGdCdA" measuredvalue=83.5
substance="sense rUrUrUrCrUrGrArArGrArArUrArUrCrCrArArAdTdT / antisense rUrUrUrGrGrArUrArUrUrCrUrUrCrArGrArArAdAdT" measuredvalue=82.5
substance="sense rArUrCrCrUrUrCrArGrArArUrCrGrArUrGrGrAdTdT / antisense rUrCrCrArUrCrGrArUrUrCrUrGrArArGrGrArUdAdT" measuredvalue=77.2
substance="sense rArArCrArArCrArUrCrArUrGrCrArGrUrGrGrAdTdT / antisense rUrCrCrArCrUrGrCrArUrGrArUrGrUrUrGrUrUdTdT" measuredvalue=56.4

Read the next record carefully.
Look up and report measured normalised inhibition (eCFP-eYFP dual reporter) for this entry: sense rArArCrCrGrArArUrCrCrUrArArCrArGrUrCrCdTdT / antisense rGrGrArCrUrGrUrUrArGrGrArUrUrCrGrGrUrUdCdA
49.9

----------
molecular target: Mmp7 (rat); assay: reporter assay of Huesken 2005; conditions: siRNA
Oligonucleotides are given in HELM: sugar(base)linkage, 5' to 3'; d 2'-deoxyribose, r ribose, m 2'-O-methylribose, p phosphate. ss, as = sense and antisense strand
Here the recorded normalised inhibition (eCFP-eYFP dual reporter) is given for each entry.
Unit % implied. Number only.

Take a look at these entries with their results.
substance=RNA1{r(G)p.r(A)p.r(A)p.r(C)p.r(U)p.r(U)p.r(C)p.r(C)p.r(U)p.r(G)p.r(U)p.r(U)p.r(U)p.r(G)p.r(U)p.r(U)p.r(G)p.r(C)p.r(C)p.d(T)p.d(T)}|RNA2{r(G)p.r(G)p.r(C)p.r(A)p.r(A)p.r(C)p.r(A)p.r(A)p.r(A)p.r(C)p.r(A)p.r(G)p.r(G)p.r(A)p.r(A)p.r(G)p.r(U)p.r(U)p.r(C)p.d(A)p.d(C)}$$$RNA1{StrandType:ss}|RNA2{StrandType:as}$ measuredvalue=53.6
substance=RNA1{r(A)p.r(U)p.r(G)p.r(U)p.r(U)p.r(G)p.r(C)p.r(A)p.r(G)p.r(A)p.r(A)p.r(U)p.r(U)p.r(C)p.r(U)p.r(C)p.r(A)p.r(C)p.r(U)p.d(T)p.d(T)}|RNA2{r(A)p.r(G)p.r(U)p.r(G)p.r(A)p.r(G)p.r(A)p.r(A)p.r(U)p.r(U)p.r(C)p.r(U)p.r(G)p.r(C)p.r(A)p.r(A)p.r(C)p.r(A)p.r(U)p.d(C)p.d(T)}$$$RNA1{StrandType:ss}|RNA2{StrandType:as}$ measuredvalue=80.2

Let me know recorded normalised inhibition (eCFP-eYFP dual reporter) for RNA1{r(A)p.r(G)p.r(U)p.r(G)p.r(C)p.r(C)p.r(A)p.r(G)p.r(A)p.r(U)p.r(G)p.r(U)p.r(U)p.r(G)p.r(C)p.r(A)p.r(G)p.r(A)p.r(A)p.d(T)p.d(T)}|RNA2{r(U)p.r(U)p.r(C)p.r(U)p.r(G)p.r(C)p.r(A)p.r(A)p.r(C)p.r(A)p.r(U)p.r(C)p.r(U)p.r(G)p.r(G)p.r(C)p.r(A)p.r(C)p.r(U)p.d(C)p.d(C)}$$$RNA1{StrandType:ss}|RNA2{StrandType:as}$ , thanks.
115

----------
target: SOST; test: reporter assay of Huesken 2005; conditions: siRNA
Oligonucleotides are given in HELM: sugar(base)linkage, 5' to 3'; d 2'-deoxyribose, r ribose, m 2'-O-methylribose, p phosphate. ss, as = sense and antisense strand
Respond with true (1) for normalised inhibition (eCFP-eYFP dual reporter) values of 60% and above, false (0) for values below.

Is normalised inhibition (eCFP-eYFP dual reporter) for RNA1{r(G)p.r(C)p.r(G)p.r(U)p.r(U)p.r(C)p.r(A)p.r(A)p.r(G)p.r(A)p.r(A)p.r(U)p.r(G)p.r(A)p.r(U)p.r(G)p.r(C)p.r(C)p.r(A)p.d(T)p.d(T)}|RNA2{r(U)p.r(G)p.r(G)p.r(C)p.r(A)p.r(U)p.r(C)p.r(A)p.r(U)p.r(U)p.r(C)p.r(U)p.r(U)p.r(G)p.r(A)p.r(A)p.r(C)p.r(G)p.r(C)p.d(C)p.d(T)}$$$RNA1{StrandType:ss}|RNA2{StrandType:as}$ at or above 60%?
true (1)

Is normalised inhibition (eCFP-eYFP dual reporter) for RNA1{r(A)p.r(G)p.r(C)p.r(U)p.r(G)p.r(C)p.r(U)p.r(G)p.r(U)p.r(G)p.r(U)p.r(C)p.r(C)p.r(C)p.r(G)p.r(G)p.r(U)p.r(G)p.r(G)p.d(T)p.d(T)}|RNA2{r(C)p.r(C)p.r(A)p.r(C)p.r(C)p.r(G)p.r(G)p.r(G)p.r(A)p.r(C)p.r(A)p.r(C)p.r(A)p.r(G)p.r(C)p.r(A)p.r(G)p.r(C)p.r(U)p.d(G)p.d(C)}$$$RNA1{StrandType:ss}|RNA2{StrandType:as}$ at or above 60%?
true (1)
